Entries annotated with measured pKi
target_system: Delta-type opioid receptor (Rattus norvegicus, UniProt P33533)
method_summary: Binding affinity against Opioid receptor delta 1 from rat brain membranes using [3H]DADLE
Remember the convention: pKi equals -log10 of concentration in molar.

Below, 3 compounds whose answers are already recorded.
compound="C=C(C)CN1CCC23c4c5ccc(O)c4O[C@H]2c2ncc(-c4ccc(Cl)cc4)cc2C[C@@]3(O)C1C5 (some centres undefined)" target_system="Delta-type opioid receptor (Rattus norvegicus, UniProt P33533)" measured_value=7.80
compound=C=C(C)CN1CC[C@]23c4c5ccc(OC)c4O[C@@H]2c2[nH]c4ccccc4c2C[C@@]3(O)[C@H]1C5 target_system="Delta-type opioid receptor (Rattus norvegicus, UniProt P33533)" measured_value=6.30
compound=CCO[C@@]12Cc3c([nH]c4ccccc34)[C@]3(C)Oc4c(O)ccc5c4C31CCN(CC1CC1)[C@@H]2C5 target_system="Delta-type opioid receptor (Rattus norvegicus, UniProt P33533)" measured_value=9.10

Consider the additional compound presented here.
// lookup pKi for C=C(C)CN1CCC23c4c5ccc(O)c4O[C@H]2C(=O)C2(CCc4ccccc42)C[C@@]3(O)C1C5 (some centres undefined)
7.39

* * *

target_system: Kappa-type opioid receptor (Cavia porcellus, UniProt P41144)
method_summary: Binding affinity against Opioid receptor kappa 1 from guinea pig brain membranes using [3H]U-69593
pKi: −log10 of the molar value.
Use 6 as the dividing line for pKi, with the line itself on the True side and lower values as False.

Identify whether the reported pKi of the following molecule is 6 or greater: Oc1ccc2c3c1O[C@H]1c4ncccc4C[C@@]4(O)C(C2)N(CC2CC2)CCC314 (stereo partly drawn)
True

* * *

target_system: Kappa-type opioid receptor (Cavia porcellus, UniProt P41144)
method_summary: Affinity against opioid receptor kappa 1 in guinea pig brain membranes determined in a competitive binding assay using [3H]U-69593 as competitive ligand (Compound 62)
Assay type: cell membranes, Membrane
measurement_name: pKi
Remember the convention: pKi equals -log10 of concentration in molar.

// lookup pKi for C=C(C)CN1CC[C@]23c4c5ccc(O)c4O[C@@H]2c2[nH]c4ccccc4c2C[C@@]3(O)[C@H]1C5
5.42

* * *

target_system: Delta-type opioid receptor (Rattus norvegicus, UniProt P33533)
method_summary: Binding affinity against Opioid receptor delta 1 from rat brain membranes using [3H]DADLE
pKi: −log10 of the molar value.
Use 7 as the dividing line for pKi, with the line itself on the y side and lower values as n.

Previously resolved entries follow.
compound="CC1CN(CCCc2ccccc2)C2CC(N)CC1(c1cccc(O)c1)C2 (stereo not drawn)" target_system="Delta-type opioid receptor (Rattus norvegicus, UniProt P33533)" assigned_label=y
compound=COc1cccc2c1[C@]13CCN(CC4CC4)[C@H](C2)[C@]1(OC)CCC(=O)C3 target_system="Delta-type opioid receptor (Rattus norvegicus, UniProt P33533)" assigned_label=n
compound=C=C(C)CN1CC[C@]23c4c5ccc(O)c4O[C@@H]2c2[nH]c4ccccc4c2C[C@@]3(O)[C@H]1C5 target_system="Delta-type opioid receptor (Rattus norvegicus, UniProt P33533)" assigned_label=y
compound=O=C(Oc1ccc2c3c([nH]c2c1)[C@H]1Oc2c(O)ccc4c2[C@@]12CCN(CC1CC1)[C@H](C4)[C@]2(O)C3)c1ccccc1 target_system="Delta-type opioid receptor (Rattus norvegicus, UniProt P33533)" assigned_label=y
compound=C/C=C/CN1CC[C@]23c4c5ccc(O)c4O[C@@H]2c2[nH]c4ccccc4c2C[C@@]3(O)[C@H]1C5 target_system="Delta-type opioid receptor (Rattus norvegicus, UniProt P33533)" assigned_label=y

Identify whether the reported pKi of the following compound is 7 or greater: CO[C@@]12CCC(=O)CC13CCN(CC1CC1)C2Cc1cccc(OCCCc2ccccc2)c13 (stereo partly drawn)
n

Identify whether the reported pKi of the following compound is 7 or greater: CC1c2c([nH]c3ccccc23)[C@H]2Oc3c(O)ccc4c3[C@@]23CCN(CC2CC2)[C@H](C4)[C@H]13 (stereo partly drawn)
y
